# experimental-details: Therapeutic index, ratio of HC50 for human RBC to MIC for Escherichia coli DSM 1103
# Type: toxicity
# condition-notes: human red blood cells versus Escherichia coli DSM 1103
readout-label: selectivity ratio

Item: "CC(C)[C@@H]1NC(=O)[C@H](CCCN)NC(=O)[C@H]([C@H](O)C(C)C)NC(=O)C2=CC3=C4CCCC4=C4C=C(S[C@]4(C)[C@@]3(C)S2)C(=O)[C@H]2CCCN2C(=O)[C@H](C(C)C)NC(=O)[C@H](CCCN)NC(=O)[C@H]([C@H](O)C(C)C)NC(=O)[C@@H]2CCCN2C(=O)[C@@H](Cc2ccccc2)NC1=O" | selectivity ratio: 0.8

Item: "Cc1sc2cc1C1=C(CCC1)c1cc(sc1C)C(=O)[C@H]1CCCN1C(=O)[C@H](C(C)C)NC(=O)[C@H](CCCN)NC(=O)[C@H](C(C)C)NC(=O)[C@@H]1CCCN1C(=O)[C@@H](Cc1ccccc1)NC(=O)[C@H](C(C)C)NC(=O)[C@H](CCCN)NC(=O)[C@H](CCNC(=O)C(C)C)NC2=O" | selectivity ratio: 1.8

Item: "CC(C)C[C@@H]1NC(=O)[C@H](CCCCN)NC(=O)[C@H](C(C)C)NC(=O)C2=CC3=C4CCCC4=C4C=C(S[C@]4(C)[C@@]3(C)S2)C(=O)[C@H]2CCCN2C(=O)[C@H](CC(C)C)NC(=O)[C@H](CCCCN)NC(=O)[C@H](C(C)C)NC(=O)[C@H](CCCCN)NC(=O)[C@H](CC(C)C)NC(=O)[C@@H]2CCCN2C(=O)[C@@H](Cc2ccccc2)NC(=O)[C@H](C(C)C)NC(=O)[C@H](CCCCN)NC1=O" | selectivity ratio: 1

Item: "Cc1sc2cc1C1=C(CCC1)c1cc(sc1C)C(=O)[C@H]1CCCN1C(=O)[C@H](C)NC(=O)[C@H](CCCN)NC(=O)[C@H](C(C)C)NC(=O)[C@@H]1CCCN1C(=O)[C@@H](Cc1ccccc1)NC(=O)[C@H](CC(C)C)NC(=O)[C@H](CCCN)NC(=O)[C@H](C)NC2=O" | selectivity ratio: 0.8

Item: "C[C@@H](O)[C@@H]1NC(=O)[C@H](C23CC4CC(CC(C4)C2)C3)NC(=O)[C@H](CCCN)NC(=O)[C@@H]2CCCN2C(=O)[C@@H](Cc2ccccc2)NC(=O)[C@H](CCCN)NC(=O)[C@H](C23CC4CC(CC(C4)C2)C3)NC(=O)[C@H](CCCN)NC(=O)C2=CC3=C4CCCC4=C4C=C(S[C@]4(C)[C@@]3(C)S2)C(=O)[C@H]2CCCN2C1=O" | selectivity ratio: 0.1

Item: "Cc1sc2cc1C1=C(CCC1)c1cc(sc1C)C(=O)[C@H]1CCCN1C(=O)[C@H](C(C)C)NC(=O)[C@H](CCCN)NC(=O)[C@H]([C@H](O)C(C)C)NC(=O)[C@@H]1CCCN1C(=O)[C@@H](Cc1ccccc1)NC(=O)[C@H](C(C)C)NC(=O)[C@H](CCCN)NC(=O)[C@H]([C@H](O)C(C)C)NC2=O" | selectivity ratio: 1.6

Item: "Cc1sc2cc1C1=C(CCC1)c1cc(sc1C)C(=O)[C@H]1CCCN1C(=O)[C@H](CC(C)C)NC(=O)[C@H](CCCCN)NC(=O)[C@H](C(C)C)NC(=O)[C@H](CCCCN)NC(=O)[C@H](CC(C)C)NC(=O)[C@H](CCCCN)N(C)C(=O)[C@@H](Cc1ccccc1)NC(=O)[C@H](C(C)C)NC(=O)[C@H](CCCCN)NC(=O)[C@H](CC(C)C)NC(=O)[C@H](CCCCN)NC(=O)[C@H](C(C)C)NC2=O" | selectivity ratio: 0.1

Item: "CC(C)[C@@H]1NC(=O)C2=CC3=C4CCCC4=C4C=C(S[C@]4(C)[C@@]3(C)S2)C(=O)[C@H]2CCCN2C(=O)[C@H]([C@@H](C)O)NC(=O)[C@H](CCCN)NC(=O)[C@H](C(C)C)NC(=O)[C@@H]2CCCN2C(=O)[C@@H](Cc2ccccc2)NC(=O)[C@H](C(C)C)NC(=O)[C@H](CCCN)NC1=O" | selectivity ratio: 2

Item: "Cc1sc2cc1C1=C(CCC1)c1cc(sc1C)C(=O)[C@H]1CCCN1C(=O)[C@H](C(C)C)NC(=O)[C@H](CCCN)NC(=O)[C@H]([C@H](O)C(C)C)NC(=O)[C@@H]1CCCN1C(=O)[C@@H](Cc1ccccc1)NC(=O)[C@H](C(C)C)NC(=O)[C@H](CCCN)NC(=O)[C@H](C(C)C)NC2=O" | selectivity ratio: 0.4

Item: "C[C@]12SC3=CC1=C1CCCC1=C1C=C(S[C@@]12C)C(=O)[C@H]1CCCN1C(=O)[C@H](CCCCN)NC(=O)[C@H](C12CC4CC(CC(C4)C1)C2)NC(=O)[C@H](CCCN)NC(=O)[C@@H]1CCCN1C(=O)[C@@H](Cc1ccccc1)NC(=O)[C@H](CCCN)NC(=O)[C@H](C12CC4CC(CC(C4)C1)C2)NC(=O)[C@H](CCCN)NC3=O" | selectivity ratio: 0.1

Item: "CC(C)[C@@H]1NC(=O)C2=CC3=C4CCCC4=C4C=C(S[C@]4(C)[C@@]3(C)S2)C(=O)[C@H]2CCCN2C(=O)[C@H]([C@H](O)C(C)C)NC(=O)[C@H](CCCN)NC(=O)[C@H](C(C)C)NC(=O)[C@@H]2CCCN2C(=O)[C@@H](Cc2ccccc2)NC(=O)[C@H](C(C)C)NC(=O)[C@H](CCCN)NC1=O" | selectivity ratio: 1

Item: "CC[C@H](C)[C@@H]1NC(=O)c2cc(c(C)s2)C2=C(CCC2)c2cc(sc2C)C(=O)[C@H]2CCCN2C(=O)[C@H](CC(C)C)NC(=O)[C@H](CCCN)NC(=O)[C@H]([C@@H](C)CC)NC(=O)[C@@H]2CCCN2C(=O)[C@H]2CCCN2C(=O)[C@H](CC(C)C)NC(=O)[C@H](CCCN)NC1=O" | selectivity ratio: 0.2

Item: "CC(C)C(=O)NCC[C@@H]1NC(=O)C2=CC3=C4CCCC4=C4C=C(S[C@]4(C)[C@@]3(C)S2)C(=O)[C@H]2CCCN2C(=O)[C@H](C(C)C)NC(=O)[C@H](CCCN)NC(=O)[C@H](C(C)C)NC(=O)[C@@H]2CCCN2C(=O)[C@@H](Cc2ccccc2)NC(=O)[C@H](C(C)C)NC(=O)[C@H](CCCN)NC1=O" | selectivity ratio: 2

---

# Test system: HeLa
# experimental-details: Cytotoxicity against human HeLa cells assessed as reduction in cell viability after 24 hrs by MTT assay
# Type: functional, cell-based
readout-label: pIC50
// pIC50: -log10(molar conc.)

>  <molecule>
CC(C)[C@@H]1NC(=O)C2=CC3=C4CCCC4=C4C=C(S[C@]4(C)[C@@]3(C)S2)C(=O)[C@H]2CCCN2C(=O)[C@H](Cc2ccc(O)cc2)NC(=O)[C@H](CCCN)NC(=O)[C@H](C(C)C)NC(=O)[C@@H]2CCCN2C(=O)[C@@H](Cc2ccccc2)NC(=O)[C@H](Cc2ccc(O)cc2)NC(=O)[C@H](CCCN)NC1=O

>  <pIC50>
3.86

$$$$
>  <molecule>
CC[C@H](C)[C@@H]1NC(=O)c2cc(c(C)s2)C2=C(CCC2)c2cc(sc2C)C(=O)[C@H]2CCCN2C(=O)[C@H](CC(C)C)NC(=O)[C@H](CCCN)NC(=O)[C@H]([C@@H](C)CC)NC(=O)[C@@H]2CCCN2C(=O)[C@H]2CCCN2C(=O)[C@H](CC(C)C)NC(=O)[C@H](CCCN)NC1=O

>  <pIC50>
5.22

$$$$
>  <molecule>
Cc1sc2cc1C1=C(CCC1)c1cc(sc1C)C(=O)[C@H]1CCCN1C(=O)[C@H]([C@H](O)C(C)C)NC(=O)[C@H](CCCN)NC(=O)[C@H](C(C)C)NC(=O)[C@@H]1CCCN1C(=O)[C@@H](Cc1ccccc1)NC(=O)[C@H](C(C)C)NC(=O)[C@H](CCCN)NC(=O)[C@H](C(C)C)NC2=O

>  <pIC50>
4.51

$$$$

Item: "CC(C)NC(=O)C[C@@H]1NC(=O)C2=CC3=C4CCCC4=C4C=C(S[C@]4(C)[C@@]3(C)S2)C(=O)[C@H]2CCCN2C(=O)[C@H](C(C)C)NC(=O)[C@H](CCCN)NC(=O)[C@H](C(C)C)NC(=O)[C@@H]2CCCN2C(=O)[C@@H](Cc2ccccc2)NC(=O)[C@H](C(C)C)NC(=O)[C@H](CCCN)NC1=O" | pIC50: 3.71

Item: "CC[C@H](C)[C@@H]1NC(=O)c2cc(c(C)s2)C2=C(CCC2)c2cc(sc2C)C(=O)[C@H]2CCCN2C(=O)[C@H]([C@@H](C)CC)NC(=O)[C@H](CCCN)NC(=O)[C@H](CC(C)C)NC(=O)[C@H](CC(C)C)N(C)C(=O)[C@@H](Cc2ccccc2)NC(=O)[C@H]([C@@H](C)CC)NC(=O)[C@H](CCCN)NC1=O" | pIC50: 5.52

Item: "CC[C@H](C)[C@@H]1NC(=O)C2=CC3=C4CCCC4=C4C=C(S[C@]4(C)[C@@]3(C)S2)C(=O)[C@H]2CCCN2C(=O)[C@H]([C@@H](C)CC)NC(=O)[C@H](CCCN)NC(=O)[C@H](CC(C)C)NC(=O)[C@H](CC(C)C)N(C)C(=O)[C@@H](Cc2ccccc2)NC(=O)[C@H]([C@@H](C)CC)NC(=O)[C@H](CCCN)NC1=O" | pIC50: 4.60

Item: "Cc1sc2cc1C1=C(CCC1)c1cc(sc1C)C(=O)[C@H]1CCCN1C(=O)[C@H](CC(C)C)NC(=O)[C@H](CCCN)NC(=O)[C@H](C(C)C)NC(=O)[C@@H]1CCCN1C(=O)[C@@H](Cc1ccccc1)NC(=O)[C@H](CC(C)C)NC(=O)[C@H](CCCN)NC(=O)[C@H](CCCN)NC2=O" | pIC50: 5.22

Item: "CC(C)C[C@@H]1NC(=O)[C@H](CCCCN)NC(=O)[C@H](C(C)C)NC(=O)C2=CC3=C4CCCC4=C4C=C(S[C@]4(C)[C@@]3(C)S2)C(=O)[C@H]2CCCN2C(=O)[C@H](CC(C)C)NC(=O)[C@H](CCCCN)NC(=O)[C@H](C(C)C)NC(=O)[C@H](CCCCN)N(C)C(=O)[C@@H](Cc2ccccc2)NC1=O" | pIC50: 4.62

Item: "CC(C)[C@@H]1NC(=O)C2=CC3=C4CCCC4=C4C=C(S[C@]4(C)[C@@]3(C)S2)C(=O)[C@H]2CCCN2C(=O)[C@H]([C@H](O)C(C)C)NC(=O)[C@H](CCCN)NC(=O)[C@H](C(C)C)NC(=O)[C@@H]2CCCN2C(=O)[C@@H](Cc2ccccc2)NC(=O)[C@H](C(C)C)NC(=O)[C@H](CCCN)NC1=O" | pIC50: 3.52

Item: "CC(C)C[C@@H]1NC(=O)[C@H](CCCNC(=N)N)NC(=O)[C@H](C(C)C)NC(=O)C2=CC3=C4CCCC4=C4C=C(S[C@]4(C)[C@@]3(C)S2)C(=O)[C@H]2CCCN2C(=O)[C@H](CC(C)C)NC(=O)[C@H](CCCNC(=N)N)NC(=O)[C@H](C(C)C)NC(=O)[C@@H]2CCCN2C(=O)[C@@H](Cc2ccccc2)NC1=O" | pIC50: 4.46

Item: "Cc1sc2cc1C1=C(CCC1)c1cc(sc1C)C(=O)[C@H]1CCCN1C(=O)[C@H]([C@@H](C)O)NC(=O)[C@H](C13CC4CC(CC(C4)C1)C3)NC(=O)[C@H](CCCN)NC(=O)[C@@H]1CCCN1C(=O)[C@@H](Cc1ccccc1)NC(=O)[C@H](CCCN)NC(=O)[C@H](C13CC4CC(CC(C4)C1)C3)NC(=O)[C@H](CCCN)NC2=O" | pIC50: 5.05

Item: "CC(C)C(=O)NCC[C@@H]1NC(=O)C2=CC3=C4CCCC4=C4C=C(S[C@]4(C)[C@@]3(C)S2)C(=O)[C@H]2CCCN2C(=O)[C@H](C(C)C)NC(=O)[C@H](CCCN)NC(=O)[C@H](C(C)C)NC(=O)[C@@H]2CCCN2C(=O)[C@@H](Cc2ccccc2)NC(=O)[C@H](C(C)C)NC(=O)[C@H](CCCN)NC1=O" | pIC50: 3.71

Item: "CC(C)C[C@@H]1NC(=O)[C@H](CCCN)NC(=O)[C@H](C(C)C)NC(=O)C2=CC3=C4CCCC4=C4C=C(S[C@]4(C)[C@@]3(C)S2)C(=O)[C@H]2CCCN2C(=O)[C@H](C)NC(=O)[C@H](CCCN)NC(=O)[C@H](C(C)C)NC(=O)[C@@H]2CCCN2C(=O)[C@@H](Cc2ccccc2)NC1=O" | pIC50: 4.41
